- MEASURED ON: Peptidyl-prolyl cis-trans isomerase A (Homo sapiens, UniProt P62937)
- Sequence (P62937 whole entry): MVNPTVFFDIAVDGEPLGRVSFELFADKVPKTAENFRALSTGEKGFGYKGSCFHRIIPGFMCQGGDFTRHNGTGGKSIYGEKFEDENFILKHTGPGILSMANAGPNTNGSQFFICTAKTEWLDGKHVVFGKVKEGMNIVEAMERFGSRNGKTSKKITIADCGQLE
- EXPERIMENTAL DETAILS: Binding affinity to human cyclophilin A by intrinsic tryptophan fluorescence titration assay
- MEASUREMENT CONTEXT: read-out: Kd
Criterion: Kd strictly less than 100 µM. Met: yes. Not met: no.

>  <MOLECULAR STRING>
Cc1ccc(NC(=S)Nc2ccc3c(c2)C(=O)OC3)cc1Cl

>  <MEASURED ON>
Peptidyl-prolyl cis-trans isomerase A (Homo sapiens, UniProt P62937)

>  <CATEGORY LABEL>
yes

$$$$
>  <MOLECULAR STRING>
O=C1OCc2ccc(NC(=S)Nc3cccc(Cl)c3)cc21

>  <MEASURED ON>
Peptidyl-prolyl cis-trans isomerase A (Homo sapiens, UniProt P62937)

>  <CATEGORY LABEL>
no

$$$$
>  <MOLECULAR STRING>
COc1ccc(NS(=O)(=O)c2ccc(NC(=S)Nc3ccc(Cl)cc3)cc2)cc1

>  <MEASURED ON>
Peptidyl-prolyl cis-trans isomerase A (Homo sapiens, UniProt P62937)

>  <CATEGORY LABEL>
yes

$$$$
>  <MOLECULAR STRING>
Cc1cc(NS(=O)(=O)c2ccc(NC(=S)Nc3ccccc3)cc2)no1

>  <MEASURED ON>
Peptidyl-prolyl cis-trans isomerase A (Homo sapiens, UniProt P62937)

>  <CATEGORY LABEL>
yes

$$$$
>  <MOLECULAR STRING>
O=C1OCc2ccc(NC(=S)Nc3cc(Cl)c(Cl)cc3Cl)cc21

>  <MEASURED ON>
Peptidyl-prolyl cis-trans isomerase A (Homo sapiens, UniProt P62937)

>  <CATEGORY LABEL>
no

$$$$
>  <MOLECULAR STRING>
Cc1cc(NS(=O)(=O)c2ccc(NC(=S)Nc3ccc(Cl)cc3)cc2)no1

>  <MEASURED ON>
Peptidyl-prolyl cis-trans isomerase A (Homo sapiens, UniProt P62937)

>  <CATEGORY LABEL>
no

$$$$
>  <MOLECULAR STRING>
Cc1cc(NS(=O)(=O)c2ccc(NC(=S)Nc3ccc(C)c(Cl)c3)cc2)no1

>  <MEASURED ON>
Peptidyl-prolyl cis-trans isomerase A (Homo sapiens, UniProt P62937)

>  <CATEGORY LABEL>
yes

$$$$

###

- EXPERIMENTAL DETAILS: Therapeutic index, TC50 for human CEM cells to EC50 for SIV
- Type: cell-based, CCRF-CEM
Measured selectivity ratio by item
QUANTITY MEASURED: selectivity ratio

>  <MOLECULAR STRING>
Cc1cc(NS(=O)(=O)c2ccc(NC(=S)Nc3ccc(F)cc3)cc2)no1

>  <RESULT VALUE>
11

$$$$
>  <MOLECULAR STRING>
Cc1cccc(NC(=S)Nc2ccc3c(c2)C(=O)OC3)c1

>  <RESULT VALUE>
1

$$$$
>  <MOLECULAR STRING>
O=C1OCc2ccc(NC(=S)Nc3cccc(Cl)c3)cc21

>  <RESULT VALUE>
20

$$$$
>  <MOLECULAR STRING>
O=S(=O)(Nc1nccs1)c1ccc(NC(=S)Nc2ccc(Cl)cc2)cc1

>  <RESULT VALUE>
3

$$$$
>  <MOLECULAR STRING>
Cc1ccc(NC(=S)Nc2ccc(S(=O)(=O)Nc3nccs3)cc2)cc1Cl

>  <RESULT VALUE>
3

$$$$
>  <MOLECULAR STRING>
O=C1OCc2ccc(NC(=S)Nc3cccc(F)c3)cc21

>  <RESULT VALUE>
10

$$$$
>  <MOLECULAR STRING>
O=C1OCc2ccc(NC(=S)Nc3ccc(F)cc3)cc21

>  <RESULT VALUE>
5

$$$$
>  <MOLECULAR STRING>
O=C1OCc2ccc(NC(=S)Nc3cccc(Br)c3)cc21

>  <RESULT VALUE>
7

$$$$
>  <MOLECULAR STRING>
CCN(CC)c1nc(C)c([N+](=O)[O-])c(NCCNC(=S)Nc2ccc(C)c(Cl)c2)n1

>  <RESULT VALUE>
7

$$$$
>  <MOLECULAR STRING>
Cc1ccc(NC(=S)Nc2ccc3c(c2)C(=O)OC3)cc1Cl

>  <RESULT VALUE>
4

$$$$
>  <MOLECULAR STRING>
Cc1cc(NS(=O)(=O)c2ccc(NC(=S)Nc3cccc(F)c3)cc2)no1

>  <RESULT VALUE>
8

$$$$
>  <MOLECULAR STRING>
COc1ccc(NC(=S)Nc2ccc3c(c2)C(=O)OC3)cc1

>  <RESULT VALUE>
20

$$$$
>  <MOLECULAR STRING>
Cc1cc(NS(=O)(=O)c2ccc(NC(=S)Nc3ccccc3C)cc2)no1

>  <RESULT VALUE>
8

$$$$
>  <MOLECULAR STRING>
CCN(CC)c1nc(C)cc(NCCNC(=S)Nc2cccc(Br)c2)n1

>  <RESULT VALUE>
2

$$$$
>  <MOLECULAR STRING>
O=C1OCc2ccc(NC(=S)Nc3ccc(Cl)cc3)cc21

>  <RESULT VALUE>
14

$$$$
>  <MOLECULAR STRING>
O=C1OCc2ccc(NC(=S)Nc3cc(Cl)c(Cl)cc3Cl)cc21

>  <RESULT VALUE>
8

$$$$
>  <MOLECULAR STRING>
COc1ccc(NS(=O)(=O)c2ccc(NC(=S)Nc3ccc(Cl)cc3)cc2)cc1

>  <RESULT VALUE>
19

$$$$
>  <MOLECULAR STRING>
Cc1cc(NS(=O)(=O)c2ccc(NC(=S)Nc3ccc(C)c(Cl)c3)cc2)no1

>  <RESULT VALUE>
127

$$$$
>  <MOLECULAR STRING>
Cc1ccc(NC(=S)Nc2ccc(C)c([N+](=O)[O-])c2)cc1Cl

>  <RESULT VALUE>
12

$$$$
>  <MOLECULAR STRING>
Cc1ccc(NC(=S)Nc2ccc(S(=O)(=O)Nc3cc(C)on3)cc2)cc1

>  <RESULT VALUE>
4

$$$$
>  <MOLECULAR STRING>
Cc1ccccc1NC(=S)Nc1ccc2c(c1)C(=O)OC2

>  <RESULT VALUE>
17

$$$$
>  <MOLECULAR STRING>
Cc1cc(NS(=O)(=O)c2ccc(NC(=S)Nc3ccccc3)cc2)no1

>  <RESULT VALUE>
7

$$$$
>  <MOLECULAR STRING>
Cc1cc(NS(=O)(=O)c2ccc(NC(=S)Nc3cccc(Br)c3)cc2)no1

>  <RESULT VALUE>
66

$$$$

###

Measured Activity (milli optical density/minute) by item
- MEASURED ON: Structural capsid protein (Human immunodeficiency virus 1) (UniProt Q76129)
- Sequence (Q76129 as listed by the source): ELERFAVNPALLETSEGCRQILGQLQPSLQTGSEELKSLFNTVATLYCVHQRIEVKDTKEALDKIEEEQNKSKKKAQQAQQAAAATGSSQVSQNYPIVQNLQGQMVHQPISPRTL
- EXPERIMENTAL DETAILS: Binding affinity to HIV1 capsid assessed as assembly rate per minute by ultraviolet spectrophotometry assay
QUANTITY MEASURED: Activity (milli optical density/minute)

>  <MOLECULAR STRING>
Cc1ccc(NC(=S)Nc2ccc(S(=O)(=O)Nc3cc(C)on3)cc2)cc1

>  <RESULT VALUE>
45.9

$$$$
>  <MOLECULAR STRING>
Cc1ccc(NC(=S)Nc2ccc3c(c2)C(=O)OC3)cc1Cl

>  <RESULT VALUE>
19.6

$$$$
>  <MOLECULAR STRING>
Cc1cc(NS(=O)(=O)c2ccc(NC(=S)Nc3ccccc3)cc2)no1

>  <RESULT VALUE>
39.2

$$$$
>  <MOLECULAR STRING>
O=C1OCc2ccc(NC(=S)Nc3cccc(Br)c3)cc21

>  <RESULT VALUE>
69.6

$$$$
>  <MOLECULAR STRING>
Cc1ccc(NC(=S)Nc2ccc(S(=O)(=O)Nc3nccs3)cc2)cc1

>  <RESULT VALUE>
59

$$$$
>  <MOLECULAR STRING>
Cc1cc(NS(=O)(=O)c2ccc(NC(=S)Nc3ccc(C)c(Cl)c3)cc2)no1

>  <RESULT VALUE>
36.4

$$$$
>  <MOLECULAR STRING>
CCN(CC)c1nc(C)c([N+](=O)[O-])c(NCCNC(=S)Nc2ccc(C)c(Cl)c2)n1

>  <RESULT VALUE>
91

$$$$
>  <MOLECULAR STRING>
Cc1ccc(NC(=S)Nc2ccc(S(=O)(=O)Nc3nccs3)cc2)cc1Cl

>  <RESULT VALUE>
27.4

$$$$
>  <MOLECULAR STRING>
COc1ccc(NC(=S)Nc2ccc3ccccc3c2)cc1

>  <RESULT VALUE>
66.7

$$$$
>  <MOLECULAR STRING>
Cc1cc(NS(=O)(=O)c2ccc(NC(=S)Nc3cccc(F)c3)cc2)no1

>  <RESULT VALUE>
76.2

$$$$
